The entries below are paired with their reported TGI.
Test system: SF-295 CNS
Measurement Description: NCI tumour cell line growth inhibition, 48 h
Measured Endpoint: TGI

- Molecule: "O=C(O)CCC1(C(=O)O)CCC(=O)c2ccccc21 (centres undefined)"
  Target Desc: "SF-295 CNS"
  Result: "> 100 µM"
- Molecule: "COc1ccc(NC(=S)N/N=C(\\c2ccccc2)c2ccccn2)cc1"
  Target Desc: "SF-295 CNS"
  Result: "9.59 µM"
- Molecule: "CC(CO)CCC(O)C(C)(O)C1CCC2(O)C3=CC(=O)C4CC(O)C(O)CC4(C)C3CCC12C (centres undefined)"
  Target Desc: "SF-295 CNS"
  Result: "> 100 µM"
- Molecule: "CC1(O)C(C)(O)C(C)(O)C1(C)O (centres undefined)"
  Target Desc: "SF-295 CNS"
  Result: "> 100 µM"
- Molecule: "COC(=O)c1ccc(C2SC(C)C(=O)N2NC(=O)C(O)c2ccccc2)cc1 (centres undefined)"
  Target Desc: "SF-295 CNS"
  Result: "> 100 µM"
- Molecule: "CN(C)CCNS(=O)(=O)N(C)C"
  Target Desc: "SF-295 CNS"
  Result: "> 100 µM"
- Molecule: "O=S(=O)(Nc1ccc2ccccc2c1)N1CCCCC1"
  Target Desc: "SF-295 CNS"
  Result: "15.2 µM"
- Molecule: "O=C(Nc1ccccc1C(=O)N/N=C(\\c1ccccc1)c1ccccn1)c1ccccc1"
  Target Desc: "SF-295 CNS"
  Result: "> 67 µM"
- Molecule: "CCOC(=O)C1C(c2ccc3c(c2)OCO3)c2c([nH][nH]c2=O)CC1(O)OCC (centres undefined)"
  Target Desc: "SF-295 CNS"
  Result: "> 100 µM"
- Molecule: "CCOC(=O)c1ccc(N=Cc2ccc(N(CCC#N)CCC#N)cc2)cc1"
  Target Desc: "SF-295 CNS"
  Result: "> 100 µM"
- Molecule: "CN1CCC(CN2c3ccccc3Sc3ccccc32)C1 (centres undefined)"
  Target Desc: "SF-295 CNS"
  Result: "29.8 µM"
- Molecule: "COc1ccc(C2=Cc3nc2c(-c2ccccc2)c2ccc([nH]2)c(-c2ccccc2)c2nc(c(-c4ccccc4)c4ccc([nH]4)c3-c3ccccc3)C=C2)cc1"
  Target Desc: "SF-295 CNS"
  Result: "> 100 µM"
- Molecule: "COc1ccc(CCc2nc3cc(-c4c(C)noc4C)ccc3n2CCN2CCOCC2)cc1"
  Target Desc: "SF-295 CNS"
  Result: "> 100 µM"
- Molecule: "NC1(P(=O)(O)O)CCCCC1"
  Target Desc: "SF-295 CNS"
  Result: "> 100 µM"
- Molecule: "COc1ccc2c(c1)C(=O)C1(C2)[C@H](c2ccccc2)C2C(=O)c3cc(OC)ccc3C2[C@H]1c1ccccc1 (some centres undefined)"
  Target Desc: "SF-295 CNS"
  Result: "> 100 µM"
- Molecule: "COc1ccc(N)c(C(=O)CCNC(C)=O)c1"
  Target Desc: "SF-295 CNS"
  Result: "> 100 µM"
- Molecule: "CC[C@@]1(C[C@H]2C[C@@]3(C(=O)OC)c4[nH]c5ccccc5c4CCN3C2=S)COC2(CCCCC2)O1"
  Target Desc: "SF-295 CNS"
  Result: "> 100 µM"
- Molecule: "CCOC(=O)c1cc2c([nH]1)c(OC(C)=O)cc1c2ccn1Cc1ccccc1"
  Target Desc: "SF-295 CNS"
  Result: "> 100 µM"
- Molecule: "O=S(=O)(Nc1nccs1)c1ccc(Nc2nc(-c3cccs3)nc3ccc(I)cc23)cc1"
  Target Desc: "SF-295 CNS"
  Result: "43.1 µM"
- Molecule: "COC(=O)[C@]1(C)CCC[C@]2(C)C3CC4OOC3(C=C4C(C)(C)O)CCC21 (some centres undefined)"
  Target Desc: "SF-295 CNS"
  Result: "> 100 µM"
- Molecule: "COc1ccc(CNc2nc3ccccc3nc2C(=O)O)cc1OC"
  Target Desc: "SF-295 CNS"
  Result: "> 100 µM"
- Molecule: "N#Cc1c(=N)cc2c3ccccc3oc3c(C#N)c(N)[nH]c1c32"
  Target Desc: "SF-295 CNS"
  Result: "> 100 µM"
- Molecule: "O=[N+]([O-])/C(C(Cl)=C(Cl)Cl)=C(\\Nc1cccc2ccccc12)n1nnc2ccccc21"
  Target Desc: "SF-295 CNS"
  Result: "> 100 µM"
- Molecule: "CCOC(=O)C(C(=O)OCC)P(=S)(S)c1ccccc1 (centres undefined)"
  Target Desc: "SF-295 CNS"
  Result: "> 100 µM"
- Molecule: "CCCCCCC(O)(c1ccc(F)cc1)C(CN1CCOCC1)c1ccccc1 (centres undefined)"
  Target Desc: "SF-295 CNS"
  Result: "31.5 µM"
- Molecule: "CCCCCCCCCCCCC(CC)CCCCC(=O)O (centres undefined)"
  Target Desc: "SF-295 CNS"
  Result: "> 100 µM"
- Molecule: "CCOc1ccccc1C(=O)/C=C/c1cc2ccccc2[nH]c1=O"
  Target Desc: "SF-295 CNS"
  Result: "1.28 µM"
- Molecule: "Cc1ccc(C(=O)N/N=C(\\N=Nc2cccc(C)c2)c2ccc(N(CCC#N)CCC#N)cc2C)cc1"
  Target Desc: "SF-295 CNS"
  Result: "> 100 µM"
- Molecule: "CN/N=C(/C=C/c1ccccc1)C(C)C"
  Target Desc: "SF-295 CNS"
  Result: "> 100 µM"
- Molecule: "CC(=O)OCc1cc(=O)n2c([nH]c3ccccc32)c1C#N"
  Target Desc: "SF-295 CNS"
  Result: "> 100 µM"
- Molecule: "O=S(=O)(Nc1cc(F)cc(F)c1)c1ccc(-c2cnc(C3CC3)o2)cc1"
  Target Desc: "SF-295 CNS"
  Result: "11.7 µM"
- Molecule: "CN1C(=O)N(C)C2(O)c3ccccc3C(=O)C12O (centres undefined)"
  Target Desc: "SF-295 CNS"
  Result: "> 100 µM"
- Molecule: "CCOP(=O)(OCC)C(C)(C)OC(=O)NC(F)(F)F"
  Target Desc: "SF-295 CNS"
  Result: "> 100 µM"
- Molecule: "CC1(C)OCC(C2OC(OC(=O)c3ccc(C(F)(F)F)cc3)C3OC(C)(C)OC23)O1 (centres undefined)"
  Target Desc: "SF-295 CNS"
  Result: "> 77.5 µM"
- Molecule: "[N-]=[N+]=Nc1ncnc2c1sc(=S)n2-c1ccccc1"
  Target Desc: "SF-295 CNS"
  Result: "> 100 µM"
- Molecule: "NC(N)=N/N=C(\\c1ccc(F)cc1)c1ccc(C(F)(F)F)cc1"
  Target Desc: "SF-295 CNS"
  Result: "0.817 µM"
- Molecule: "CCN(CC)c1c(C(=O)/C=C/c2ccc(F)cc2)c(-c2ccccc2)nn(C)c1=O"
  Target Desc: "SF-295 CNS"
  Result: "34 µM"
- Molecule: "Cc1ccc(I)cc1N=C=S"
  Target Desc: "SF-295 CNS"
  Result: "62.8 µM"
- Molecule: "COc1ccc(/C=C/C(=O)c2sc(Nc3ccc([N+](=O)[O-])cc3)nc2C)cc1"
  Target Desc: "SF-295 CNS"
  Result: "81.5 µM"
- Molecule: "CCC(C)CN=C(N)c1ccc(N2CCN(c3ccc(C(N)=NCC(C)CC)cc3)CC2)cc1 (centres undefined)"
  Target Desc: "SF-295 CNS"
  Result: "17.4 µM"
- Molecule: "COc1ccc(CNc2cnc3ccc(N)cc3n2)cc1OC"
  Target Desc: "SF-295 CNS"
  Result: "> 100 µM"
- Molecule: "c1cncc(CNCCN2CCNCC2)c1"
  Target Desc: "SF-295 CNS"
  Result: "> 100 µM"
- Molecule: "CC(=O)/C(=C\\c1ccccc1)C(=O)Nc1ccccc1"
  Target Desc: "SF-295 CNS"
  Result: "> 100 µM"
- Molecule: "O=C(CCC1CCCCC1)NCc1ccc(C(=O)O)cc1"
  Target Desc: "SF-295 CNS"
  Result: "> 100 µM"

====

Tested on: IGROV1 ovarian
Measurement Description: NCI tumour cell line growth inhibition, 48 h
Where a SMILES comes first, the peptide text is derived from it.
The entries below are paired with their reported GI50.

- Molecule: "Cn1cc(-c2csc(-c3c[nH]c4ccccc34)n2)c2cccnc21"
  GI50: "308 nM"
- Molecule: "O=c1[nH]nc(-c2nn(-c3ccc(Cl)cc3)cc2O)o1"
  GI50: "117 nM"
- Molecule: "O=Cc1cn(Cc2ccccc2)c2ccccc12"
  GI50: "500 nM"
- Molecule: "CCOc1ccccc1C(=O)/C=C/c1cc2ccccc2[nH]c1=O"
  GI50: "56.4 nM"
- Molecule: "COc1cc(-c2cc(-c3nc4ccc(F)cc4[nH]3)[nH]n2)cc(OC)c1OC"
  GI50: "2270 nM"
- Molecule: "CCCCCCC(O)(c1ccc(F)cc1)C(CN1CCOCC1)c1ccccc1 (stereo not drawn)"
  GI50: "12800 nM"
- Molecule: "COC(=O)C(C)NP(=O)(OCc1ccc(Cn2cnc3c(N)ncnc32)cc1)Oc1ccccc1 (stereo not drawn)"
  GI50: "39100 nM"
- Molecule: "CCCCCN1C(=O)/C(=c2\\sc3n(c2=O)C2C(NN=3)N(CC)C(=O)N2CC)c2ccccc21 (stereo not drawn)"
  GI50: "1650 nM"
- Molecule: "CCNC(=O)N1CCc2c(Cl)c3c(c(OC)c2[C@@H]1[C@H]1OCc2c1ccc(OC)c2OC)OCCO3"
  GI50: "3600 nM"
- Molecule: "O=C1c2ccccc2S(=O)(=O)N1CSC(=S)N1CCOCC1"
  GI50: "> 100000 nM"
- Molecule: "COc1cc2c3c(n(CCCN)c(=O)c2cc1OC)-c1ccc(N(C)C)cc1C3=O"
  GI50: "14800 nM"
- Molecule: "O=C([CH-]C(=O)C(F)(F)F)c1ccccc1.O=C([CH-]C(=O)C(F)(F)F)c1ccccc1.[O]=[U+2]=[O]"
  GI50: "16500 nM"
- Molecule: "COc1ccc(C(O)c2cc3c(N)c(C(=O)Nc4ccccc4)sc3nc2C)cc1 (stereo not drawn)"
  GI50: "94 nM"
- Molecule: "O=C(NNC(=O)c1ccccc1S)c1ccccc1S"
  GI50: "16900 nM"
- Molecule: "Cn1cc(C2=C(n3ccc4ccccc43)C(=O)NC2=O)c2ccccc21"
  GI50: "> 25000 nM"
- Molecule: "O=C(Nc1ccccc1C(=O)N/N=C(\\c1ccccc1)c1ccccn1)c1ccccc1"
  GI50: "502 nM"
- Molecule: "O=c1cc(/C=C/c2ccc(O)c(O)c2)cc(/C=C/c2ccc(O)c(O)c2)o1"
  GI50: "5240 nM"
- Molecule: "CCC(C)C1NC(=O)C(CCCCN)NC(=O)C(CCCCN)NC(=O)C(CC(C)C)NC(=O)C(CCCCN)NC(=O)C(C(C)CC)NC(=O)C(C(C)C)NC(=O)C(C(C)CC)NC(=O)C(CCCCN)NC(=O)C(CCCCN)NC(=O)C(C)NC(=O)C(CCCCN)NC(=O)C(CC(C)C)NC1=O (stereo not drawn) (cyclo(AKKIVIKLKKILK); configuration not given here)"
  GI50: "1970 nM"
